Biological target: T1, human SLC34A2 (human, UniProt O95436 1-690)
T1 construct: whole, on cells; also called human solute carrier 34 A2; NaPi2b
T1 sequence (looked up): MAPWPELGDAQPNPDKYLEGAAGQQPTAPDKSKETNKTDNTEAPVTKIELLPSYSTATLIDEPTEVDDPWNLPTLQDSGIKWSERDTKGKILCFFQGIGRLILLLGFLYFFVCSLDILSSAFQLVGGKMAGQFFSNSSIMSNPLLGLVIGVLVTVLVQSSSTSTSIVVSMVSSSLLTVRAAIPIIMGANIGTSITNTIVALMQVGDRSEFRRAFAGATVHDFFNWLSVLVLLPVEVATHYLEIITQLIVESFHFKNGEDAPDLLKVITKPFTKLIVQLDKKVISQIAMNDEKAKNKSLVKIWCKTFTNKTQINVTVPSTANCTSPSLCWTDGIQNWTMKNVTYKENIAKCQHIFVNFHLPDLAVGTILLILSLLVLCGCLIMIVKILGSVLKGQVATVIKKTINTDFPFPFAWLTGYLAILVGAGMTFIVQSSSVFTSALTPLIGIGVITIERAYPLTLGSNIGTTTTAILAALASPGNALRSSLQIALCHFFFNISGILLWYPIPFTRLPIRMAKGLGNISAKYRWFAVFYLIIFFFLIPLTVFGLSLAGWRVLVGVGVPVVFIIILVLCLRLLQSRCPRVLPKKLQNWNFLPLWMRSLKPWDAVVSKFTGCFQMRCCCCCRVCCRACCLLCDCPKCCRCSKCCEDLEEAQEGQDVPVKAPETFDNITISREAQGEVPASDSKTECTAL
Test: FACS, OVCAR3 cells
readout name: Top
Respond with a number, then the unit of measure.

Top recorded for this binder, 91C9F1.p1.z7 hIgG1 (antibody, V domains shown, humanized hIgG1) VH: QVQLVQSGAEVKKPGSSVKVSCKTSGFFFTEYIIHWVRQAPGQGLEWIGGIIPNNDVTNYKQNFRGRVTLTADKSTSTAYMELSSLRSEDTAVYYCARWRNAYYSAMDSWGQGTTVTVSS VL: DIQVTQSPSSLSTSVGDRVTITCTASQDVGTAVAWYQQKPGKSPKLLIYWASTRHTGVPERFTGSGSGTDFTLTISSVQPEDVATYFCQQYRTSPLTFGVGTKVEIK , is 20500 MFI

Entry xi91C9F1 hIgG1 (antibody, V domains shown, chimeric, hIgG1) VH: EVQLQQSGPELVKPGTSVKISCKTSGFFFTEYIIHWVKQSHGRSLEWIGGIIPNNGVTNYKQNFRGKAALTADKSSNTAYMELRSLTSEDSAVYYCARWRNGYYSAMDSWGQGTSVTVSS VL: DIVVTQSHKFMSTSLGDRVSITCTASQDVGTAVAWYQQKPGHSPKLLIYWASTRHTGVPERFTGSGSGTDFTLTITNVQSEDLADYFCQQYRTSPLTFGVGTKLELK , Top reported as 21000 MFI

The reported value for 91C9F1.p1 hIgG1 (antibody, V domains shown, PTM-derisked chimeric, hIgG1; also called 91C9F1.pl hIgG1) VH: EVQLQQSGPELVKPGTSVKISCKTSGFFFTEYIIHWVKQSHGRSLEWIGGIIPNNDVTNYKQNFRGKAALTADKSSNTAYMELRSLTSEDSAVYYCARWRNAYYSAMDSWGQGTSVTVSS VL: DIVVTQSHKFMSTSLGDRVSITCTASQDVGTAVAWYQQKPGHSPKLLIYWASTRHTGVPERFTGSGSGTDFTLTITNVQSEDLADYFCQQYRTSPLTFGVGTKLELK in terms of Top is 19500 MFI

Origin of measurements: patent US20240301052A1
